Cited source: patent US20230287082A1

# testTarget: NKp30 on human NK cells (human) (UniProt O14931)
# Sequence (O14931 19-201): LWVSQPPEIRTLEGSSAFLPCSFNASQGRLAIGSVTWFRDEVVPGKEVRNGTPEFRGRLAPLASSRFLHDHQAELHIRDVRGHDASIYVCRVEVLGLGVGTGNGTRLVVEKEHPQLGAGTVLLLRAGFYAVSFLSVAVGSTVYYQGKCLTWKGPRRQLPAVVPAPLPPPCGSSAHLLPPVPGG
# testMethodNotes: cell-based or functional assay
parameter: EC50 improvement compared to ΔB7-H6 wt (fold)
Kindly answer with a numeric value in fold, unit omitted.

Some solved cases for reference:
[
  {
    "binder": "ΔB7-H6_S3#3-SEED-PGLALA (bispecific antibody, part only; not given: SEED Fc chains and hu225 Fab, part only) chain, part: DLKVEMMAGGTQITPLNDNVTIFCNIFYSQPLNITHMGITWFWKSLTFDKEVKVFEFFGDHQEAFRPGAIVSPWRLKSGDASLRLPGIQLEEAGEYRCEVFVTPYKAQGTVQLEVVASPAS",
    "unitAbbrev": "fold",
    "EC50 improvement compared to ΔB7-H6 wt": 8
  },
  {
    "binder": "ΔB7-H6_S3#27-SEED-PGLALA (bispecific antibody, part only; not given: SEED Fc chains and hu225 EGFR Fab, part only) chain, part: DLKVEMMAGGTQITPLNDNVTIFCNIFYSQPLNITTMGITWFWKSLTFDKEVKVFEFWGDHQEAFRPGAIVSPWRLKSGDASLRLPGIQLEEAGEYRCEVIVTPYKAQGTVQLEVVASPAS",
    "unitAbbrev": "fold",
    "EC50 improvement compared to ΔB7-H6 wt": 45
  },
  {
    "binder": "ΔB7-H6_S3#7-SEED-PGLALA (bispecific antibody, part only; not given: SEED Fc chains and hu225 Fab, part only) chain, part: DLKVEMMAGGTQITPLNDNVTIFCNIFYSQPLNITHMGITWFWKSLTFDKEVKVFEFYGDHQEAFRPGAIVSPWRLKSGDASLRLPGIQLEEAGEYRCEVVVTPYKAQGTVQLEVVASPAS",
    "unitAbbrev": "fold",
    "EC50 improvement compared to ΔB7-H6 wt": 19
  }
]

Return reported EC50 improvement compared to ΔB7-H6 wt. Input binder: ΔB7-H6_S3#25-SEED-PGLALA (bispecific antibody, part only; not given: SEED Fc chains and hu225 Fab, part only) chain, part: DLKVEMMAGGTQITPLNDNVTIFCNIFYSQPLNITWMGITWFWKSLTFDKEVKVFEFYGDHQEAFRPGAIVSPWRLKSGDASLRLPGIQLEEAGEYRCEVVVTPYKAQGTVQLEVVASPAS
88
